Give measured TGI for each item. Keep answers brief.
# System: SF-539 CNS
# PROTOCOL: NCI tumour cell line growth inhibition, 48 h
*1 amine or outer side, *2 acyl side, *3 side chain or, on linkers, in order; H or OH if unused. Where a SMILES comes first, the peptide text is derived from it. [ ]: non-standard residue; d: D form. The star is where a group is joined. ξ: configuration not given here. X53 = CC(C)C[C@H](N[*:1])C1=N[C@H](C(=O)[*:2])CS1; Ile(3ξ) = CCC(C)[C@H](N)C(=O)O; Allyl(1,1-Me2) = C=CC(C)(C)*

Consider the worked cases shown below.
compound=CC1(C)COC(c2ccccc2-c2ccccc2)=N1 measured_parameter=TGI result="> 100 µM"
compound=CCOc1cc(NC(C)=O)ccc1C(=O)NNS(=O)(=O)c1ccc(Cl)cc1Cl measured_parameter=TGI result="> 50 µM"
compound=O=C1C(=O)/C(=C/c2ccccc2)CCCCCC/C1=C/c1ccccc1 measured_parameter=TGI result="3.95 µM"
compound="C=CC(C)(C)OC[C@@H]1NC(=O)CNC(=O)[C@@H]2CCCN2C(=O)[C@H](C(C)CC)NC(=O)[C@@H]2CSC(=N2)[C@H](CC(C)C)NC1=O (some centres undefined) (cyclo(GS(Allyl(1,1-Me2))[X53][Ile(3ξ)]P))" measured_parameter=TGI result="> 100 µM"
compound=NCCCNC(=O)c1csc(NC(=O)c2csc(NC(=O)CCCN)n2)n1 measured_parameter=TGI result="> 100 µM"

I'm hoping you can list TGI for every compound here, please.
1. COc1ccccc1/C=C/C(=O)c1ccc(Nc2nc(Nc3ccc(F)cc3)nc(Nc3ccc(F)cc3)n2)cc1
2. CO[C@H]1/C=C/[C@@](C)(O)/C=C/C(=O)O[C@H](C)[C@@H](C)CC/C=C/1C
3. N#CC1(C#N)C(c2ccc(C3C(C#N)(C#N)C3(C#N)C#N)cc2)C1(C#N)C#N

1. 17.6 µM
2. 31.3 µM
3. > 100 µM

---

# Test system: NCI-H226 lung
# PROTOCOL: NCI tumour cell line growth inhibition, 48 h
Give measured GI50 for each item. Keep answers brief.

Consider the worked cases shown below.
molecule=C1C[OH+]CCNCC[OH+]CC[OH+]CCN1.O.[Cl-].[Pt+4] result="> 100000 nM"
molecule=COc1ccc(/C=C/C(=O)c2c(O)c(C)c(O)c3c2OC2=CC(O)=C(C(C)=O)C(=O)[C@]23C)cc1 result="2610 nM"
molecule=O=C(c1ccc(Oc2ccccc2)cc1Cl)c1c[nH]c2ncnc(N[C@@H]3CC[C@@H](CO)OC3)c12 result="1470 nM"
molecule=CC(=O)c1ccc(Nc2cc(-n3nnc4ccccc43)nc3ccccc23)cc1 result="14800 nM"
molecule=CN(C)CCCNc1nc2ccccc2c2c(=O)c3cc(F)ccc3sc12 result="1710 nM"
molecule=COc1cc(/C=C/c2cc(/C=C/c3ccc(O)c(OC)c3)n(C(N)=O)n2)ccc1O result="1380 nM"
molecule=O=C1C(=O)/C(=C/c2ccccc2)CCCCCC/C1=C/c1ccccc1 result="1760 nM"
molecule="C=C1C(O)C2C(=C(CC(C)C)C13CC3)C(=O)C(C)(C)C2O (stereo unspecified)" result="> 100000 nM"
molecule="CCC(=O)OCC1OC(n2cnc3c(=S)nc(N)[nH]c32)C(OC(=O)CC)C1OC(=O)CC (stereo unspecified)" result="2620 nM"
molecule=COc1cc2c(Oc3ccc4[nH]c(C)cc4c3F)ncnc2cc1OCCCN1CCCC1 result="675 nM"

As a next step, examine the molecule that follows.
Query (molecule): `Oc1ccc(OCCOc2ccc(O)cc2)cc1` ; field requested: GI50 4980 nM

Origin of measurements: PubChem BioAssay (NCI)
